# Assay Overview: reversed-phase LC retention time (C18, 15 min MeOH gradient); higher = more hydrophobic / later elution
# Experimental Setup: ionization mode: ESI+; ion species: [M+H]+
Experimental Endpoint: reversed-phase LC retention time (min)
One number for each entry, in min.

Compound	Result Unit	reversed-phase LC retention time
CC(C)(C)C(O)(CCc1ccc(Cl)cc1)Cn1cncn1 (stereo not given)	min	15.5
CCN(CC)C(=O)C(C)Oc1cccc2ccccc12 (stereo not given) [Napropamide]	min	14.9
CON(C)C(=O)Nc1ccc(Br)cc1	min	12.6
CC(C1CC1)C(O)(Cn1cncn1)c1ccc(Cl)cc1 (stereo not given) [Cyproconazole_2]	min	14.6
CNC(=O)Oc1cccc2c1OC(C)(C)C2	min	11.7

Hi team, please reply with reversed-phase LC retention time for each item in this list.
1. C/C=C/C(=O)N(CC)c1ccccc1C
2. O=c1c2ccccc2[nH]c2ccccc12
3. CCCCCCCCCCCCCCN(C)C
4. CCc1cccc(C)c1N(C(=O)CS(=O)(=O)O)C(C)COC (stereo not given)
5. COP(=O)(OC)OC=C(Cl)Cl

Result ::
1: 14; 2: 11.1; 3: 16.6; 4: 12.1; 5: 9.07

These data points were gathered from the supplement of paper PMC12613149.
